# TGT: calpain-I (Sus scrofa)
# Construct: purchased CalBiochem
# Sequence (P35750 1-714): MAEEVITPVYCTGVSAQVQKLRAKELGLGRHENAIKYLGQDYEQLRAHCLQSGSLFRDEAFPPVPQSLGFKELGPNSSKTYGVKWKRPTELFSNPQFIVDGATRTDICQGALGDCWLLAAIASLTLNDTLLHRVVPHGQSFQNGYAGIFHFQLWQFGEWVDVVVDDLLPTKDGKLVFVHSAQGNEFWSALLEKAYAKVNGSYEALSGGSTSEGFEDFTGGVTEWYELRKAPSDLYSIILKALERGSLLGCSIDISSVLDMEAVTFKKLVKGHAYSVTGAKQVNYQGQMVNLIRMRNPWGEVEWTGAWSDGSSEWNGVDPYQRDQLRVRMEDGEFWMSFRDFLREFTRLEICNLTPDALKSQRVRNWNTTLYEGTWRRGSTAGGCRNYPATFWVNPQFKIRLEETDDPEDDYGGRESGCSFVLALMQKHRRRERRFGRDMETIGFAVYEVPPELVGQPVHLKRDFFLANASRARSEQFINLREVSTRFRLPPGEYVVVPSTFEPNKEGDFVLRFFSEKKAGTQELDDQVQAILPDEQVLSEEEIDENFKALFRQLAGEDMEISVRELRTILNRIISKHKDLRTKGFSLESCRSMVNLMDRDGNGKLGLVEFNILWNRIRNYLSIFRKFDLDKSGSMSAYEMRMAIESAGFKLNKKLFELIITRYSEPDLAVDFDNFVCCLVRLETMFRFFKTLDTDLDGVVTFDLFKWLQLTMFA
# Sequence (P04574 1-266): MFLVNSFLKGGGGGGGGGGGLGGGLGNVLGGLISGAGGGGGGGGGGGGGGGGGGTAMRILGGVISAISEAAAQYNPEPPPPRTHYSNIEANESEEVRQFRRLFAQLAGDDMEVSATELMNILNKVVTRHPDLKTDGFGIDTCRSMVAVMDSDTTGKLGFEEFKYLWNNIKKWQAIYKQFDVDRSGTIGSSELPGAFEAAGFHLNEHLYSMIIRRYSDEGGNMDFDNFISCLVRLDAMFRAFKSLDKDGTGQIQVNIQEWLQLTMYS
# PROTOCOL_SUMMARY: FRET-based calpain-I inhibition assay in the presence and absence of 10 mM DTT
# Format: biochemical, porcine
# EXPERIMENTAL_PARAMETERS: absence of DTT (oxidised disulfide form); compounds left 3 hours in assay solution before the assay; read-out: IC50, Disulfide
MEASURE: IC50 (nM)

smiles_representation=O=C(O)/C(=C/c1ccccc1F)SS/C(=C\c1ccccc1F)C(=O)O value_measured=65

(1) O=C(O)/C(=C/c1c[nH]c2ccc(I)cc12)SS/C(=C\c1c[nH]c2ccc(I)cc12)C(=O)O
(2) O=C(O)/C(=C/c1c[nH]c2cc(Cl)ccc12)SS/C(=C\c1c[nH]c2cc(Cl)ccc12)C(=O)O
Q: Given the two records 1 and 2 , choose the one whose IC50 value is lower. API: response body contains the label of the selected item.
Result: 1
